Below, each of the molecules is paired with its reported refractive index value.
Experiment: refractive index (Na D-line) (dimensionless); xn = mol fraction of the nth substance listed
Conditions: 323.15 K; 100 kPa; Liquid; Standard Abbe refractometry; x1 = 0.25
± gives the expanded uncertainty stated by the source.

molecule | refractive index
C[N+](C)(C)Cc1ccccc1.[Cl-] [trimethylbenzylammonium chloride] + OCCO | 1.4878 ± 0.0011
CCCC[N+](CCCC)(CCCC)Cc1ccccc1.[Cl-] [benzyltributylammonium chloride] + OCCO | 1.4871 ± 0.0011
C[N+](C)(C)Cc1ccccc1.[Cl-] [trimethylbenzylammonium chloride] + OCCOCCOCCO | 1.4807 ± 0.0011
C[N+](C)(C)Cc1ccccc1.[Cl-] [trimethylbenzylammonium chloride] + OCCOCCO | 1.4841 ± 0.0011
C[N+](C)(C)Cc1ccccc1.[Cl-] [trimethylbenzylammonium chloride] + OCC(O)CO | 1.5027 ± 0.0011
CCCC[N+](CCCC)(CCCC)Cc1ccccc1.[Cl-] [benzyltributylammonium chloride] + OCCOCCOCCO | 1.4811 ± 0.0011
CCCC[N+](CCCC)(CCCC)Cc1ccccc1.[Cl-] [benzyltributylammonium chloride] + OCC(O)CO | 1.4977 ± 0.0011
CCCC[N+](CCCC)(CCCC)Cc1ccccc1.[Cl-] [benzyltributylammonium chloride] + OCCOCCO | 1.4836 ± 0.0011
